Source listed as ChEMBL document CHEMBL5291721.

- target_system: Bile salt export pump (Homo sapiens, UniProt O95342); further: assay procedure not described here
- Sequence (O95342 whole entry): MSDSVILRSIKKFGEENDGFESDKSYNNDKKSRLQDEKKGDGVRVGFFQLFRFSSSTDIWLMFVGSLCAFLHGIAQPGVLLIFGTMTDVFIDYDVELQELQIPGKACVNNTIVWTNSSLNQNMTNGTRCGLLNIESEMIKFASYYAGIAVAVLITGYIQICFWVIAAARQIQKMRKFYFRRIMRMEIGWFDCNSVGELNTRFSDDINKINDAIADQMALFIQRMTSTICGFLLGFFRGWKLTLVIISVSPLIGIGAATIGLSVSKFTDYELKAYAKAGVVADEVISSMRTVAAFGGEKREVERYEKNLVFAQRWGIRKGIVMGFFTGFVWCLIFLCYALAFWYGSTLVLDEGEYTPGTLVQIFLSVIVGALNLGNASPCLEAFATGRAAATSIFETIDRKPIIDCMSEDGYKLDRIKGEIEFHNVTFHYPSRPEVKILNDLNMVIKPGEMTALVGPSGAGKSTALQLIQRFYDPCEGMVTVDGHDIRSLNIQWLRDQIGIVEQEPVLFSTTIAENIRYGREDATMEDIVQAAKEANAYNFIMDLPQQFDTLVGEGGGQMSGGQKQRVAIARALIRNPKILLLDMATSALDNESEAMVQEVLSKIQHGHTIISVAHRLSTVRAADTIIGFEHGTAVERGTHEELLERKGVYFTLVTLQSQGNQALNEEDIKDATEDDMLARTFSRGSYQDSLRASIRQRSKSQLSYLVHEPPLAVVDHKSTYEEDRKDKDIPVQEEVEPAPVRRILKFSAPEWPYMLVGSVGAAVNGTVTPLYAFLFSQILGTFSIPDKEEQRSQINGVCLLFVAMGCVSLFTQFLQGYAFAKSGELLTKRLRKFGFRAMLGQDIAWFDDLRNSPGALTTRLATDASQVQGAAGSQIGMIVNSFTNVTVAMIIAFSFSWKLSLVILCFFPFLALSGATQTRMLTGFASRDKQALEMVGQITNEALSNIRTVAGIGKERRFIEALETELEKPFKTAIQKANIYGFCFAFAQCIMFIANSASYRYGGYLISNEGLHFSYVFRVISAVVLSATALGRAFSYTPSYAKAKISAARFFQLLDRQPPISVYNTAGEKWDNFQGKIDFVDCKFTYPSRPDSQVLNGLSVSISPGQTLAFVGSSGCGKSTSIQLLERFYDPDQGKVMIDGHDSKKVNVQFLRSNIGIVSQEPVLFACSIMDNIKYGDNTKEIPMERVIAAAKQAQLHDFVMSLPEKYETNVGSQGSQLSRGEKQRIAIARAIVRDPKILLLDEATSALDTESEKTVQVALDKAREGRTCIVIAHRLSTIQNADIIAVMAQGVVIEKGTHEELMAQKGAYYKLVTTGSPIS
- Format: functional
experimental_endpoint: log10 of AC50 (log10 of the value in µM)
Annotation: log10 of AC50, µM basis.

Before answering, review these 4 worked examples.
{"compound": "O=C(OCC(O)CO)c1ccccc1Nc1ccnc2cc(Cl)ccc12 (stereo not drawn) [GLAFENINE]", "log10 of AC50": 1.18}
{"compound": "O=C1Nc2ccc(Cl)cc2[C@@](C#CC2CC2)(C(F)(F)F)O1 [EFAVIRENZ]", "log10 of AC50": 2.04}
{"compound": "Cc1cccc(Nc2ccccc2C(=O)O)c1C [MEFENAMIC ACID]", "log10 of AC50": 2.18}
{"compound": "CO[C@H]1C[C@@H]2CC[C@@H](C)[C@@](O)(O2)C(=O)C(=O)N2CCCC[C@H]2C(=O)O[C@H]([C@H](C)C[C@@H]2CC[C@@H](O)[C@H](OC)C2)CC(=O)[C@H](C)/C=C(\\C)[C@@H](O)[C@@H](OC)C(=O)[C@H](C)C[C@H](C)/C=C/C=C/C=C/1C [SIROLIMUS]", "log10 of AC50": 0.00}

Given COc1cc(NC(C)CCCN)c2ncccc2c1 (stereo not drawn) [PRIMAQUINE] , state its recorded log10 of AC50. 1.79

###

- target_system: Voltage-dependent L-type calcium channel subunit alpha-1C (Rattus norvegicus, UniProt P22002); further: assay procedure not described here
- Sequence (P22002 whole entry): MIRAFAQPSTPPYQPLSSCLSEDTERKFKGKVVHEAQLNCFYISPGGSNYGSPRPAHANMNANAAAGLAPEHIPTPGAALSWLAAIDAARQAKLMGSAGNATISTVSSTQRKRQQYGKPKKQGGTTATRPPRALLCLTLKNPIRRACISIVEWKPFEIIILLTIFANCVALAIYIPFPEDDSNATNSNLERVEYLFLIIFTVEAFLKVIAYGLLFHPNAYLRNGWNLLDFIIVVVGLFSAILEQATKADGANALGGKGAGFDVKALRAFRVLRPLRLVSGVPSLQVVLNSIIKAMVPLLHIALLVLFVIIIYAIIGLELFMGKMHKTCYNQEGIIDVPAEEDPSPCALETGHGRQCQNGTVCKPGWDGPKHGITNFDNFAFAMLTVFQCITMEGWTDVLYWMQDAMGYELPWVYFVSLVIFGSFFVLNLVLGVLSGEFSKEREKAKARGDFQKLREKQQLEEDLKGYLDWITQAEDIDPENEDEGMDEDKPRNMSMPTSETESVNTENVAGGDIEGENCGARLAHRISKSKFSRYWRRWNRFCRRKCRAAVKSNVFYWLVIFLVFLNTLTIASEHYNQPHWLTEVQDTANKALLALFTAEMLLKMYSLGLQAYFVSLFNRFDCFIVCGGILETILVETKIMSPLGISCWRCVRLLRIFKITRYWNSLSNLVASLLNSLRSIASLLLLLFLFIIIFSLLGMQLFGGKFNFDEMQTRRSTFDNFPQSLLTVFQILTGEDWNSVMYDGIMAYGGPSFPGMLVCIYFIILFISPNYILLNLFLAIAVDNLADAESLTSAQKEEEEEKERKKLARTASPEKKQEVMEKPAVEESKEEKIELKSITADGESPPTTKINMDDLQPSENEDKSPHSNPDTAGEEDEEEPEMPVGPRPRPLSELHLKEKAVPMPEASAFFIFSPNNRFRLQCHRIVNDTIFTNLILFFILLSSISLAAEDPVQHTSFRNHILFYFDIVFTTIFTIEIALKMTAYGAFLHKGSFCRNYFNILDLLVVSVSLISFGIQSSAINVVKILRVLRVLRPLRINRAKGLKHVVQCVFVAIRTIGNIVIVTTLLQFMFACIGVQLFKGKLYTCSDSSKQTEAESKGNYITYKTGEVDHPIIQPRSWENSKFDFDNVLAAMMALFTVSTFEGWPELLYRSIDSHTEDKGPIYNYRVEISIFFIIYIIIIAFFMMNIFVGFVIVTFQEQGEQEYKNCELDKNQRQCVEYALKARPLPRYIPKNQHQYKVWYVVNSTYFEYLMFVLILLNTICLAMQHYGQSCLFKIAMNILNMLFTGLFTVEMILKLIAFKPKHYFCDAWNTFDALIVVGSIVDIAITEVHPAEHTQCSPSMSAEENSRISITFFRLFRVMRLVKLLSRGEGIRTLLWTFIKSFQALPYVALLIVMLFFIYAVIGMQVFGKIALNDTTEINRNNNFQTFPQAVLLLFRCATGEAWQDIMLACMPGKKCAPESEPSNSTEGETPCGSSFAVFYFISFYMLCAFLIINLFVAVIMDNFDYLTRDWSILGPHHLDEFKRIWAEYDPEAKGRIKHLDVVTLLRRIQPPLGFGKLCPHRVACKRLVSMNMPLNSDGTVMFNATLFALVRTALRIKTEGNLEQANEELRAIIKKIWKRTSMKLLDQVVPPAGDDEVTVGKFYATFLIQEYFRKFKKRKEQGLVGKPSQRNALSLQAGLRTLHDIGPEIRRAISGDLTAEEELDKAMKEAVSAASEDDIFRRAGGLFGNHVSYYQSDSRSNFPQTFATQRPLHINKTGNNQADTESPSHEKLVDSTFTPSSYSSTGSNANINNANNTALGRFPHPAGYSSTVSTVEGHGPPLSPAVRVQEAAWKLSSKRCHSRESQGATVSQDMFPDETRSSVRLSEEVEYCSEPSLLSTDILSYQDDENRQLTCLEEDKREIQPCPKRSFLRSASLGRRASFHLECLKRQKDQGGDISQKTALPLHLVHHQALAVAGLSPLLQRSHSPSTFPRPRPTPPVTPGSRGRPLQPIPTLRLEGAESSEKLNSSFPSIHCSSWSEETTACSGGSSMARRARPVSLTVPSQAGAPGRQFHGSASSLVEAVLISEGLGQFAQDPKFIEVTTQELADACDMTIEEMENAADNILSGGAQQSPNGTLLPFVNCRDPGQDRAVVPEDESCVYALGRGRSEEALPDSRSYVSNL
- Format: functional
Measured AC50 values are reported for all entries that follow.

Reference set (6 entries):
{"compound": "COc1cccc(C2(O)CCCCC2CN(C)C)c1 (stereo not drawn) [TRAMADOL]", "AC50": "> 10 µM"}
{"compound": "CN1CCN(CC/C=C2/c3ccccc3Sc3ccc(S(=O)(=O)N(C)C)cc32)CC1 [THIOTHIXENE]", "AC50": "> 10 µM"}
{"compound": "C[C@@H](O)[C@H]1C(=O)N2C(C(=O)O)=C(S[C@@H]3CN[C@H](C(=O)N(C)C)C3)[C@H](C)[C@H]12 [MEROPENEM]", "AC50": "> 10 µM"}
{"compound": "CCC(C)n1ncn(-c2ccc(N3CCN(c4ccc(OCC5COC(Cn6cncn6)(c6ccc(Cl)cc6Cl)O5)cc4)CC3)cc2)c1=O (stereo not drawn) [ITRACONAZOLE]", "AC50": "> 30 µM"}
{"compound": "Cc1cc(O)c(C(=O)N[C@@H](C(=O)N[C@@H]2C(=O)N3C(C(=O)O)=C(CSc4nnnn4C)CS[C@H]23)c2ccc(O)cc2)cn1 [CEFPIRAMIDE]", "AC50": "> 30 µM"}
{"compound": "CN(C)CCC=C1c2ccccc2C=Cc2ccccc21 [CYCLOBENZAPRINE]", "AC50": "> 10 µM"}

So what does the record say about AC50 for C=CCc1ccccc1OCC(O)CNC(C)C (stereo not drawn) [ALPRENOLOL] ? > 30 µM

Look up AC50 for this compound: Cc1nnc2n1-c1ccc(Cl)cc1C(c1ccccc1Cl)=NC2 [TRIAZOLAM] > 10 µM

Entry COC(=O)C1=C(C)NC(C)=C(C(=O)OC2CCCN(Cc3ccccc3)C2)C1c1cccc([N+](=O)[O-])c1 (stereo not drawn) [BENIDIPINE] has what AC50? 0.014 µM

Given the compound COc1ccccc1N1CCN(CC(O)COc2cccc3ccccc23)CC1 (stereo not drawn) [NAFTOPIDIL] , what is its reported AC50? 6.3 µM

Name the reported AC50 value associated with the compound Cn1nnc2c(C(N)=O)ncn2c1=O [TEMOZOLOMIDE] > 10 µM

Which AC50 value belongs to Clc1ccc(C(c2ccccc2Cl)C(Cl)Cl)cc1 (stereo not drawn) [MITOTANE] ? > 10 µM

State the recorded AC50 for this entry: COc1ccc2c3c1O[C@H]1C(=O)CC[C@@]4(O)[C@@H](C2)N(C)CC[C@]314 [OXYCODONE] > 30 µM

Tell me the measured AC50 of C[C@]12CCC(=O)C=C1CC[C@@H]1[C@@H]2[C@@H](O)C[C@@]2(C)[C@H]1CC[C@]2(O)C(=O)CO [HYDROCORTISONE] , please. > 10 µM

Fill in the blank: the reported AC50 of NS(=O)(=O)Cc1noc2ccccc12 [ZONISAMIDE] is ____. > 10 µM

Endpoint output: AC50 of CN(C)CC/C=C1\c2ccccc2CSc2ccccc21 [DOTHIEPIN] . Value? 24 µM

// returns reported AC50 for input Cc1ccc(S(=O)(=O)NC(=O)NN2CC3CCCC3C2)cc1 (stereo not drawn) [GLICLAZIDE] > 10 µM

Return reported AC50; argument: O=[N+]([O-])O[C@@H]1CO[C@H]2[C@@H]1OC[C@@H]2O [ISOSORBIDE MONONITRATE] > 10 µM

###

AC50: recorded values
- target_system: 5-hydroxytryptamine receptor 2A (Homo sapiens, UniProt P28223); further: assay procedure not described here
- Sequence (P28223 whole entry): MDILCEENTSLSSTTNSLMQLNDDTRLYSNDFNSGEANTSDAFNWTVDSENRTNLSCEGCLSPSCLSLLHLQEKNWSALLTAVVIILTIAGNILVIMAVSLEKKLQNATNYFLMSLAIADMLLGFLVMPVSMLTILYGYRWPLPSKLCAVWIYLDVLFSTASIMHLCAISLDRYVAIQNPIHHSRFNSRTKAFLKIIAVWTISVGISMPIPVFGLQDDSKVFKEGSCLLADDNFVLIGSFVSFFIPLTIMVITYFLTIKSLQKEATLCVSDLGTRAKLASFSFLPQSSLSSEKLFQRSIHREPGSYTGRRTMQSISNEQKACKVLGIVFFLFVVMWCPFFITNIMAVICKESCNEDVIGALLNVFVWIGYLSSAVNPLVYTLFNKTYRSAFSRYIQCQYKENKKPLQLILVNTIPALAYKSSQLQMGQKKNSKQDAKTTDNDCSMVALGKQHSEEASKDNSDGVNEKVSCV
- Format: functional, cell-based

{"compound": "COc1ccc(CCN(C)CCCC(C#N)(c2cc(OC)c(OC)c(OC)c2)C(C)C)cc1OC (stereo not drawn)", "target_system": "5-hydroxytryptamine receptor 2A (Homo sapiens, UniProt P28223)", "experimental_endpoint": "AC50", "test_value": "3.6 µM"}
{"compound": "Cc1nnc2n1-c1ccc(Cl)cc1C(c1ccccc1Cl)=NC2", "target_system": "5-hydroxytryptamine receptor 2A (Homo sapiens, UniProt P28223)", "experimental_endpoint": "AC50", "test_value": "> 30 µM"}
{"compound": "Nc1nc(NC2CC2)c2ncn([C@H]3C=C[C@@H](CO)C3)c2n1", "target_system": "5-hydroxytryptamine receptor 2A (Homo sapiens, UniProt P28223)", "experimental_endpoint": "AC50", "test_value": "> 30 µM"}
{"compound": "CC(C)(C)C(=O)Oc1ccc(S(=O)(=O)Nc2ccccc2C(=O)NCC(=O)O)cc1", "target_system": "5-hydroxytryptamine receptor 2A (Homo sapiens, UniProt P28223)", "experimental_endpoint": "AC50", "test_value": "> 30 µM"}
{"compound": "Cc1oc(=O)oc1CN1CCN(c2cc3c(cc2F)c(=O)c(C(=O)O)c2n3C(C)S2)CC1 (stereo not drawn)", "target_system": "5-hydroxytryptamine receptor 2A (Homo sapiens, UniProt P28223)", "experimental_endpoint": "AC50", "test_value": "> 30 µM"}

Which value of AC50 has been reported for `O=C1C(O)=C([C@H]2CC[C@H](c3ccc(Cl)cc3)CC2)C(=O)c2ccccc21` in the records? > 30 µM

Any idea what AC50 was measured for `Cc1ccc(-n2nccn2)c(C(=O)N2CCN(c3nc4cc(Cl)ccc4o3)CC[C@H]2C)c1` ? > 30 µM

Which AC50 is reported for this compound? COc1ccccc1OCCNCC(O)c1ccc(C)c(S(N)(=O)=O)c1 (stereo not drawn) 7.7 µM

Reported AC50, compound `CO/N=C(\C(=O)N[C@@H]1C(=O)N2C(C(=O)O)=C(CSc3nnnn3C)CS[C@H]12)c1csc(N)n1` : ____ > 30 µM

Reported AC50, compound COC(=O)C1=C(C)NC(C)=C(C(=O)OC2CCCN(Cc3ccccc3)C2)C1c1cccc([N+](=O)[O-])c1 (stereo not drawn) : ____ > 30 µM

Tell me the measured AC50 of NC(=O)CN1CC(O)CC1=O (stereo not drawn) , please. > 30 µM

Fill in: AC50 of `Nc1ccn([C@H]2CC[C@@H](CO)O2)c(=O)n1` is ___ > 10 µM

Look at this compound and give its reported AC50. O=C(Cc1ccc(-c2ccccc2)cc1)Nc1ccccn1 [DIFENPIRAMIDE] > 30 µM

Which AC50 reading was recorded for the compound `CC[C@H]1[C@@H](O)[C@@H]2[C@H](CC[C@]3(C)[C@@H]([C@H](C)CCC(=O)O)CC[C@@H]23)[C@@]2(C)CC[C@@H](O)C[C@@H]12` ? 11.5 µM

// returns reported AC50 for input `CNC(=O)c1ccccc1Sc1ccc2c(/C=C/c3ccccn3)n[nH]c2c1` > 30 µM

Query: AC50; subject: `CC(C)C(=O)c1c(C(C)C)nn2ccccc12` > 30 µM

Could you tell me which AC50 is on file for C=CCC1(C(C)CC)C(=O)NC(=O)NC1=O (stereo not drawn) ? > 10 µM

Can you look up the measured AC50 of COc1cc2nc(N(C)CCCNC(=O)C3CCCO3)nc(N)c2cc1OC (stereo not drawn) for me? > 30 µM

###

- target_system: D(1A) dopamine receptor (Homo sapiens); further: assay procedure not described here
- Sequence (P21728 whole entry): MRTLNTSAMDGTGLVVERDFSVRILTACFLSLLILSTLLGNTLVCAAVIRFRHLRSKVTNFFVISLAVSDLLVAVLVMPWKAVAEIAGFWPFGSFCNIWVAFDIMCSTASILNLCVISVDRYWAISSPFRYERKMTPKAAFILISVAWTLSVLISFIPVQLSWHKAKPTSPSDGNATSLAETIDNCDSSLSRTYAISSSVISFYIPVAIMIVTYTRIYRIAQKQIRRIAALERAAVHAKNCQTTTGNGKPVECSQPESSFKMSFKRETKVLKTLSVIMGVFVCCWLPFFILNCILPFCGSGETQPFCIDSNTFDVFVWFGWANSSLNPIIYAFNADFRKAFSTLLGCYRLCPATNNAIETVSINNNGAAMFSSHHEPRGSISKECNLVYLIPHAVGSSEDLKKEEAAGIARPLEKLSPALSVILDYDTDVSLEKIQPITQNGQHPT
experimental_endpoint: AC50

For the record N[C@H](C(=O)O)[C@H](O)c1ccc(O)c(O)c1 [DROXIDOPA] , what value of AC50 is listed for D(1A) dopamine receptor (Homo sapiens)? > 30 µM

Tell me reported AC50 for Nc1ccncc1N [AMIFAMPRIDINE] , tested with D(1A) dopamine receptor (Homo sapiens). > 30 µM

Missing value: AC50, D(1A) dopamine receptor (Homo sapiens), entry CC(C)(C)N1CCC(c2ccccc2)(c2ccccc2)CC1 [BUDIPINE] . Fill in? > 30 µM

Form entry - test system: D(1A) dopamine receptor (Homo sapiens); read-out: AC50; compound: CN(C)CCn1nnnc1SCC1=C(C(=O)O)N2C(=O)[C@@H](NC(=O)Cc3csc(N)n3)[C@H]2SC1 [CEFOTIAM] > 30 µM

Hi! What's the reported AC50 for CCC1=C(C)CN(C(=O)NCCc2ccc(S(=O)(=O)NC(=O)N[C@H]3CC[C@H](C)CC3)cc2)C1=O [GLIMEPIRIDE] on D(1A) dopamine receptor (Homo sapiens)? > 30 µM

Param readout= AC50; system= D(1A) dopamine receptor (Homo sapiens); entry= CCOC(=O)[C@H](CCc1ccccc1)N[C@@H](C)C(=O)N1[C@H](C(=O)O)C[C@H]2CCCC[C@@H]21 [TRANDOLAPRIL] ; returns value. > 30 µM

Tell me reported AC50 for CCCCS(=O)(=O)N[C@@H](Cc1ccc(OCCCCC2CCNCC2)cc1)C(=O)O [TIROFIBAN] , tested with D(1A) dopamine receptor (Homo sapiens). > 30 µM

State its AC50 on D(1A) dopamine receptor (Homo sapiens): C[C@]12CC[C@@H]3c4ccc(O)cc4CC[C@H]3[C@@H]1C[C@@H](O)[C@@H]2O [ESTRIOL] > 30 µM
